# TARGET: Androgen receptor (Homo sapiens) (UniProt P10275)
# Sequence (P10275 whole entry, looked up): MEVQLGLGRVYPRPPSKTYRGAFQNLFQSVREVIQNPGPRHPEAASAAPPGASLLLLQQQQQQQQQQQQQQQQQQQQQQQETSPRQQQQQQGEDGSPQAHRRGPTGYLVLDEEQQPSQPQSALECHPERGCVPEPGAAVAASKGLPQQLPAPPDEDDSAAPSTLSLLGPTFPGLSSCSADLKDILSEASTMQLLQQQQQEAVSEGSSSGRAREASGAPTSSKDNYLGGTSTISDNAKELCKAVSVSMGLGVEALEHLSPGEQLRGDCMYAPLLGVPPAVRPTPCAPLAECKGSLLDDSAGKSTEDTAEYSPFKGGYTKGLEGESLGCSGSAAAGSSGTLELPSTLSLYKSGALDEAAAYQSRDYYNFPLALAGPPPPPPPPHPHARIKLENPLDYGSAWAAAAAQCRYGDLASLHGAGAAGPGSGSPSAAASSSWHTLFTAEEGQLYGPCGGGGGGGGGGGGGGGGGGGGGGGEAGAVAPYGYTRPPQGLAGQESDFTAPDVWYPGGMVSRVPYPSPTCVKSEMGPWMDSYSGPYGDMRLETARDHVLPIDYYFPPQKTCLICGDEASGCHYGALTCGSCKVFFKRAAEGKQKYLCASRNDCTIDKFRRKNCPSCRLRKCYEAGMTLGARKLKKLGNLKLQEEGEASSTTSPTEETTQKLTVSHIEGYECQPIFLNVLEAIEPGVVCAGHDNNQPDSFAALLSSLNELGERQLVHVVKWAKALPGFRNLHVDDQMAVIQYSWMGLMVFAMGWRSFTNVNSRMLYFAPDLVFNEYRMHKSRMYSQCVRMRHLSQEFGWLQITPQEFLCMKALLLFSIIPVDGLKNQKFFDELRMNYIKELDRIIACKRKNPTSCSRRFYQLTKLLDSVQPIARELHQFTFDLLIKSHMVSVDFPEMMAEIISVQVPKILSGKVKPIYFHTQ
# TEST_DESCRIPTION: qHTS assay to identify small molecule agonists of the androgen receptor (AR) signaling pathway in the presence of an antagonist (AID 1259381); note: nearly all actives have a fitted effect of over 15% in size
# EXPERIMENTAL_SETUP: MDA-kb2 MMTV-luciferase, AR agonist + nilutamide, 16 h; series mostly up to 92.4 µM
Activity calls are given as the source filed them. Calls come from the whole dose curve.
Outcome codes: active, inactive

{"COMPOUND": "COc1cc(OC)c2ccc(=O)oc2c1", "LABEL": "inactive"}
{"COMPOUND": "CCc1ccc(C)cc1", "LABEL": "inactive"}
{"COMPOUND": "Cc1cn([C@H]2C[C@H](F)[C@@H](CO)O2)c(=O)[nH]c1=O", "LABEL": "inactive"}
{"COMPOUND": "CCC(C)(C)C(=O)O", "LABEL": "inactive"}
{"COMPOUND": "O=C1CC[C@@H](C(=O)O)N1", "LABEL": "inactive"}
{"COMPOUND": "Oc1cccc2[nH]ccc12", "LABEL": "inactive"}
{"COMPOUND": "C[C@H](CS)C(=O)N1CCC[C@H]1C(=O)O", "LABEL": "inactive"}
{"COMPOUND": "O=C(O)CCC(=O)c1ccc(-c2ccccc2)cc1", "LABEL": "inactive"}
{"COMPOUND": "C1=CCC2CC=CC2C1 (stereo not drawn)", "LABEL": "inactive"}
{"COMPOUND": "C=Cc1ccc(OC(C)=O)cc1", "LABEL": "inactive"}
{"COMPOUND": "CCCCCCCC(=O)OCCCCCC", "LABEL": "inactive"}
{"COMPOUND": "CC1CCCC(=O)C1=O (stereo not drawn)", "LABEL": "inactive"}
{"COMPOUND": "CCCCCCCCCCCCCOS(=O)(=O)O", "LABEL": "inactive"}
{"COMPOUND": "CCOC(=O)c1ccc(NC(=O)CN2CCCCC2)cc1", "LABEL": "inactive"}
{"COMPOUND": "CCOC(=O)N1CCC(Nc2ccc(Cl)cc2N)CC1", "LABEL": "inactive"}
{"COMPOUND": "CNS(=O)(=O)c1cc(C(=O)N2CCC(CCN3C4CCC3CC(n3c(C)nc5ccccc53)C4)(c3cccc(F)c3)CC2)c(Cl)cc1F (stereo not drawn)", "LABEL": "inactive"}
{"COMPOUND": "CC(=O)OCC(C)C", "LABEL": "inactive"}
{"COMPOUND": "COC(=O)C1=C(C)NC(C)=C(C(=O)OC(C)(C)CN(C)CCC(c2ccccc2)c2ccccc2)C1c1cccc([N+](=O)[O-])c1 (stereo not drawn)", "LABEL": "inactive"}
{"COMPOUND": "Nc1cccc2c(N)cccc12", "LABEL": "active"}
{"COMPOUND": "CCC(CO)(CO)CO", "LABEL": "inactive"}
{"COMPOUND": "CCCCCCCCCCCCCC(=O)OCC(O)CO (stereo not drawn)", "LABEL": "inactive"}
{"COMPOUND": "CCN(CC)c1ccc(C(=C2C=CC(=[N+](CC)CC)C=C2)c2ccc(S(=O)(=O)O)cc2S(=O)(=O)[O-])cc1", "LABEL": "inactive"}
{"COMPOUND": "Nc1ccc(NC(=O)c2ccc(N)cc2)cc1", "LABEL": "inactive"}
{"COMPOUND": "O=C(c1ccccc1)c1ccc(O)cc1", "LABEL": "inactive"}
{"COMPOUND": "Cc1cc(CCCOc2c(C)cc(-c3noc(C(F)(F)F)n3)cc2C)on1", "LABEL": "inactive"}
{"COMPOUND": "CN1CCCN(C(c2ccccc2)c2ccc(Cl)cc2)CC1 (stereo not drawn)", "LABEL": "inactive"}
{"COMPOUND": "CN1C(CSCC(F)(F)F)Nc2cc(Cl)c(S(N)(=O)=O)cc2S1(=O)=O (stereo not drawn)", "LABEL": "inactive"}
{"COMPOUND": "CCCCC[C@H](O)/C=C/[C@H]1[C@H](O)CC(=O)[C@@H]1C/C=C\\CCCC(=O)O", "LABEL": "inactive"}
